Target: ATP-dependent DNA helicase Q1 (Homo sapiens)
Assay: Confirmation qHTS Assay for Inhibitors of RecQ-Like Dna Helicase 1 (RECQ1); also: nearly all actives have a fitted effect of over 45% in size; also: potency is read from the fitted curve at half-maximal effect
Conditions: RECQ1 helicase DNA unwinding, fluorescence; series mostly up to 229 µM
This is one part of the list. Results filed as inconclusive are left out. Activity calls are given as the source filed them. Calls follow the shape of the dose curve; as a rule, active = well fitted inhibition curve with a large enough effect; inconclusive = small, poorly fitted or top-dose-only effect; inactive = no such curve, though single readings can be large or run the other way. Peptide text beside a SMILES is read from it. * marks the point of attachment. Bz = O=C(c1ccccc1)*

>  <COMPOUND>
COc1ccc(-c2nc3c(c(SCC(=O)Nc4ccc(C(=O)O)cc4)n2)Cc2ccccc2O3)cc1

>  <Potency>
2.89 µM (active)

$$$$
>  <COMPOUND>
CC(C)(O)c1ccccc1CC[C@H](SCC1(CC(=O)O)CC1)c1cccc(/C=C/c2ccc3ccc(Cl)cc3n2)c1

>  <Potency>
40.8 µM (active)

$$$$
>  <COMPOUND>
CC(=O)Nc1ccc(Nc2c3ccccc3nc3ccccc23)cc1

>  <Potency>
22.4 µM (active)

$$$$
>  <COMPOUND>
Cc1ccccc1NC(=O)CN1C(=O)N/C(=C\c2cccn2-c2cccc(C(=O)O)c2)C1=O

>  <Potency>
31.6 µM (active)

$$$$
>  <COMPOUND>
O=C(N/N=C/c1sc(N2CCCCC2)nc1-c1cccs1)c1cccnc1

>  <Potency>
inactive

$$$$
>  <COMPOUND>
Oc1ccc(N=Cc2sc3ccccc3c2Cl)cc1

>  <Potency>
inactive

$$$$
>  <COMPOUND>
O=C(NC(Cc1c[nH]c2ccccc12)C(=O)O)/C(=C/c1ccco1)NC(=O)c1ccccc1 (stereo not drawn)

>  <Potency>
inactive

$$$$
>  <COMPOUND>
O=C(O)CCn1c(SCc2cc(=O)n3ccccc3n2)nc2ccsc2c1=O

>  <Potency>
inactive

$$$$
>  <COMPOUND>
CC1Cc2ccccc2N1C(=O)CSc1nnc(-c2ccc(S(=O)(=O)N3CCCC3)cc2)n1C (stereo not drawn)

>  <Potency>
inactive

$$$$
>  <COMPOUND>
Cc1ccc(C)n1C(Cc1ccccc1)C(=O)O (stereo not drawn)

>  <Potency>
22.4 µM (active)

$$$$
>  <COMPOUND>
O=C(c1cc2c(s1)CCC2)N1CCN(c2ccccc2)CC1

>  <Potency>
39.8 µM (active)

$$$$
>  <COMPOUND>
O=C(NC(Cc1ccccc1)C(=O)N1CCCC1C(=O)O)c1ccccc1 (stereo not drawn) (Bz-Phe-Pro-OH; configuration not given here)

>  <Potency>
inactive

$$$$
>  <COMPOUND>
O=C(NCc1ccccc1)C1=C[C@@H](C2CCCCC2)C[C@@H](OCc2ccc(CO)cc2)O1

>  <Potency>
inactive

$$$$
